system: West Nile virus; assay: Inhibition of Rluc-FL-WNV replicon in Vero cells; assay type: functional, organism-based
Recorded measurements of EC50, one per entry

# Compound, Assay system, Result qualifier, EC50 (µM)
data = [
    ("CCN(CC)C(=O)c1cccc2c(NCCc3c[nH]c4ccccc34)c3ccccc3nc12", "West Nile virus", "=", 20),
    ("CN1CCN(C(=O)c2ccc3nc4ccccc4c(NCCc4c[nH]c5ccccc45)c3c2)CC1", "West Nile virus", "=", 25),
    ("COc1ccc(C2CC(c3cccs3)=NN2C(=O)c2ccccc2)cc1 (stereo not given)", "West Nile virus", ">", 30),
    ("CN1CCN(Cc2ccc3c(c2)Oc2ccccc2C3O)CC1 (stereo not given)", "West Nile virus", "=", 10),
    ("CN1CCN(C(=O)c2ccc3c(Oc4ccccc4)c4ccccc4nc3c2)CC1", "West Nile virus", "=", 28),
    ("CN1CCN(c2cc(-c3ccc(C(C)(C)C)cc3)nc3ccccc23)CC1", "West Nile virus", "=", 15),
    ("O=C(c1cccc2c(NC3CCN(Cc4ccccc4)CC3)c3ccccc3nc12)N1CCOCC1", "West Nile virus", ">", 30),
    ("CN1CCN(Cc2ccc3c(c2)Oc2ccccc2C3)CC1", "West Nile virus", ">", 30),
    ("O=C(c1ccccc1)N1N=C(c2cccs2)CC1c1ccc(Cl)cc1 (stereo not given)", "West Nile virus", "=", 23),
    ("O=C(c1cccc2c(Oc3ccccc3)c3ccccc3nc12)N1CCOCC1", "West Nile virus", "=", 22),
]

###

system: BHK-21; assay: Inhibition of West Nile virus VLP replicon in BHK21 cell line; assay type: functional, cell-based; details: Mesocricetus auratus

# Compound, Assay system, Unit tag, Result qualifier, EC50
measured = [
    ("O=C(c1cccc2c(Oc3ccccc3)c3ccccc3nc12)N1CCOCC1", "BHK-21", "µM", ">", 30),
    ("CN1CCN(C(=O)c2ccc3c(NCCc4c[nH]c5ccccc45)c4ccccc4nc3c2)CC1", "BHK-21", "µM", "=", 10),
    ("CN1CCN(Cc2ccc3c(c2)Oc2ccccc2C3O)CC1 (stereo unspecified)", "BHK-21", "µM", "=", 4),
    ("CCN(CC)C(=O)c1ccc2c(NCCc3c[nH]c4ccccc34)c3ccccc3nc2c1", "BHK-21", "µM", "=", 7),
    ("CCN(CC)C(=O)c1ccc2nc3ccccc3c(NC3CCN(Cc4ccccc4)CC3)c2c1", "BHK-21", "µM", "=", 22),
    ("CN1CCN(c2cc(-c3ccc(C(C)(C)C)cc3)c3ccccc3n2)CC1", "BHK-21", "µM", "=", 20),
]

###

experiment: Therapeutic index (CC50/EC50) in Vero cells; assay type: cell-based; settings: monkey, read-out: Ratio CC50/EC50

# Compound, selectivity ratio
measured = [
    ("CN1CCN(Cc2ccc3c(c2)Oc2ccccc2C3)CC1", "< 3"),
    ("O=C(c1cccc2c(NCCc3c[nH]c4ccccc34)c3ccccc3nc12)N1CCOCC1", "< 2"),
    ("O=C(c1cccc2c(Oc3ccccc3)c3ccccc3nc12)N1CCOCC1", 2),
    ("CCN(CC)C(=O)c1ccc2nc3ccccc3c(NCCc3c[nH]c4ccccc34)c2c1", 5),
    ("CCN(CC)C(=O)c1cccc2c(NCCc3c[nH]c4ccccc34)c3ccccc3nc12", 2.5),
    ("CN1CCN(C(=O)c2ccc3c(Oc4ccccc4)c4ccccc4nc3c2)CC1", 1.4),
    ("CCN(CC)C(=O)c1cccc2c(NC3CCN(Cc4ccccc4)CC3)c3ccccc3nc12", 3.4),
    ("CN1CCN(Cc2ccc3c(c2)Oc2ccccc2C3O)CC1 (stereo not given)", 5),
    ("CN1CCN(C(=O)c2cccc3c(NCCc4c[nH]c5ccccc45)c4ccccc4nc23)CC1", 2.8),
    ("CN1CCN(C(=O)c2ccc3c(NCCc4c[nH]c5ccccc45)c4ccccc4nc3c2)CC1", "< 1.5"),
]
